The reported numbers originate from paper PMC4288179.

Target: T1, Interlinker chimera (Homo sapiens, UniProt Q9BRS8 70-178+P05455:101-111+181-300, internal_change)
T1 sequence: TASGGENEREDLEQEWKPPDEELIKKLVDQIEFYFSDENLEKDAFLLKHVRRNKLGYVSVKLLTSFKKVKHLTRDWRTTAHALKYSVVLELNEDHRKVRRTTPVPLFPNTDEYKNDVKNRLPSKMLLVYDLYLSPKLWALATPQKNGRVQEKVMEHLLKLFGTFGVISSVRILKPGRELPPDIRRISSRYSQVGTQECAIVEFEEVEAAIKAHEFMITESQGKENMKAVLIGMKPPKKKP
Assay: ITC; text says 500-fold decrease; table gives about 14-fold; ITC: 20 mM Tris pH 7.25, 100 mM KCl, 5 mM MgCl2, 1 mM DTT, 298 K; protein titrated into RNA
Conditions: protein: recombinant; tags: N-terminal His6 (TEV-cleavable); stem-loop with internal bulge
quantityName: Kd

- CCACAAAGAGUCUACAUGUCUAGGGUCUAGACAUGUUCAGCUUUGUGG (structured_RNA) [48 nt RNA (collagen alpha1(I) 5' UTR SL)]: 667 nM
